- Target Entity: COX-2 (Homo sapiens, UniProt P35354)
- Construct: purchased Cayman Chemical Company, Ann Arbor, MI, USA
- Sequence (P35354 18-604): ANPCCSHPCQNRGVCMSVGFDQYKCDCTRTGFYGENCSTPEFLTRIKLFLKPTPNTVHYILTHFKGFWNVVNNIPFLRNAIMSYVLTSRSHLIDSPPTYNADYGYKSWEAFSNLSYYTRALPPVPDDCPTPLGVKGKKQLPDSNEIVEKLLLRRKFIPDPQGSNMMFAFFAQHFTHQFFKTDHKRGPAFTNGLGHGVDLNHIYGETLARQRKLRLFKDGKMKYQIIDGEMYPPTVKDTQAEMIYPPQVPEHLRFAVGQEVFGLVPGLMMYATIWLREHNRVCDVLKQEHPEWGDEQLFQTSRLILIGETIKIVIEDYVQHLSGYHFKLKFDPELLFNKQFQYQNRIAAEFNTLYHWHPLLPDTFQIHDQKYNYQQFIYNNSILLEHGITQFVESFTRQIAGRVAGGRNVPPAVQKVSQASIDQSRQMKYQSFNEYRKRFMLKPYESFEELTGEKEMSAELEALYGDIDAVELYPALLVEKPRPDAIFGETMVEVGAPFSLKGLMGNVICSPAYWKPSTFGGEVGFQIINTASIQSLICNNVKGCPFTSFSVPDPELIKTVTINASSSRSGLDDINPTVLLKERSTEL
- Assay Notes: COX colorimetric inhibitor screening assay, COX-2
- Type: biochemical
- Measurement Parameters: after 2 min of incubation, n = 5; read-out: IC50 [µM] ± SD COX-2
Experimental Endpoint: IC50 (µM)

Sample records with IC50:
Could you please provide reported IC50 for Cc1ccc(C=NNC(=O)Cn2nc(CNC(=O)c3c(C)cc(C)nc3S)oc2=S)cc1 [Compound 7] ? Thanks!
184

Could you please provide reported IC50 for Cc1cc(C)c(C(=O)NCc2nn(CC(=O)NN=Cc3cccc(Cl)c3)c(=S)o2)c(S)n1 [Compound 12] ? Thanks!
90.7

Could you please provide reported IC50 for Cc1cc(C)c(C(=O)NCc2nn(CC(=O)NN=Cc3ccc(Cl)cc3)c(=S)o2)c(S)n1 [Compound 10] ? Thanks!
128

[1] Cc1cc(C)c(C(=O)NCc2nn(CC(=O)NN=Cc3ccccc3Br)c(=S)o2)c(S)n1 [Compound 13]
[2] Cc1cc(C)c(C(=O)NCc2nn(CC(=O)NN=Cc3ccc(F)cc3)c(=S)o2)c(S)n1 [Compound 6]
Hi there! Just curious which has the higher IC50 between 1 and 2 . Select an item and report its label.
2
(2: 174 µM, 1: 73.2 µM)
